targetSystem: ErbB3 on rat Schwann cells (rat) (UniProt Q62799)
Sequence (Q62799 20-1339): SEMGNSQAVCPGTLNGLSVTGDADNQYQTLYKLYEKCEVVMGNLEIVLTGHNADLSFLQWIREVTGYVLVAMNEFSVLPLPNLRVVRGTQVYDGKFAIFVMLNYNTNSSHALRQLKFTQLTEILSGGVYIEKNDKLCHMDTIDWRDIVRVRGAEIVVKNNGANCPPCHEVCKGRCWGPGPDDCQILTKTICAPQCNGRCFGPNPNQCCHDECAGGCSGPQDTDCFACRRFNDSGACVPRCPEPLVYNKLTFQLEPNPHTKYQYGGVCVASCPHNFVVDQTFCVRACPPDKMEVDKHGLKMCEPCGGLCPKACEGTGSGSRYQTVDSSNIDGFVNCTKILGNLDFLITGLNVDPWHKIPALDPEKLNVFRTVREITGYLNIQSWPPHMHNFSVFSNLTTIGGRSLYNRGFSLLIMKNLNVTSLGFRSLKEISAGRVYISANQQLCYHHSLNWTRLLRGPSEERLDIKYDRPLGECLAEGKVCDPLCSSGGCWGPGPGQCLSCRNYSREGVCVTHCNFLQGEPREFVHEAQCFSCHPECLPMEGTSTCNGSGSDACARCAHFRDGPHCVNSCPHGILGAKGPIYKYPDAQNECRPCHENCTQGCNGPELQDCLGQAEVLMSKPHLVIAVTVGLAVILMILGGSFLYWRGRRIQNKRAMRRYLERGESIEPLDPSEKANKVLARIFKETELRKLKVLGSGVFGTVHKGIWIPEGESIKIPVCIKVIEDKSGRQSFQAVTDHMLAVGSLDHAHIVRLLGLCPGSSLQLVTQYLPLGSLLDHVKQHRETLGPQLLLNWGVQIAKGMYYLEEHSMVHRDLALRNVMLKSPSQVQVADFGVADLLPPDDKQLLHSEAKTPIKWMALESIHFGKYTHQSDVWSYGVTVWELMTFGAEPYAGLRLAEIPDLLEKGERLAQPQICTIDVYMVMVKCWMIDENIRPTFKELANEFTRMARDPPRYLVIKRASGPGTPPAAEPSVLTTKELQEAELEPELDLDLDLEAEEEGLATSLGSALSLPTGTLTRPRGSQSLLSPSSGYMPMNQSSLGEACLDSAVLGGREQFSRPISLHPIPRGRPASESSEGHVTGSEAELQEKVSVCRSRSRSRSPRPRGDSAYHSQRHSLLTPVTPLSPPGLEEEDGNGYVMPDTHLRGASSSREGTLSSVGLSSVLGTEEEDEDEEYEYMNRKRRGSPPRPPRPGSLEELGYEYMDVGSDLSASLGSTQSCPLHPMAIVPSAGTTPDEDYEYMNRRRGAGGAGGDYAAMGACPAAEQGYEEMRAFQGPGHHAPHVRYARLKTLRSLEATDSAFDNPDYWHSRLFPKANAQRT
assayRemarks: cell-based or functional assay
readoutKind: Schwann cells (SC) (ErbB3) Avg EC50 (µM)

(a) huNRG1(S177-F229)(NRGE1C) 6xHis (ligand) SHLVKCGEKHKSFCVNGGECFMIEGPSNPSRYLCKCPNEFTGDRCQEDFMASFGGGGEGGGGAGGGGHHHHHH
(b) huNRG1(S177-F229) 6xHis (ligand) SHLVKCAEKEKTFCVNGGECFMVKDLSNPSRYLCKCPNEFTGDRCQNYVMASFGGGGEGGGGAGGGGHHHHHH
Out of a and b , name the one with the higher Schwann cells (SC) (ErbB3) Avg EC50. Lab log: write the label of the selected item as the result.
a
(a: 10 µM, b: 0.00362 µM)
